target: AMPK beta 1 (Homo sapiens, UniProt Q13131+Q9Y478); construct: in-cell-ELISA for phospho-ACC (Acetyl-CoA carboxylase 1) in HepG2 cells (liver); endogenous in cells; host or cells: HepG2 (assignment to the beta 1 column inferred); experiment: in-cell-ELISA for phospho-ACC: activation of AMPK, beta 1 (HepG2 cells / C2C12 myotubes); format: cell-based; settings: 2 h, 1 μM, percentage activation over vehicle control, read-out: Percentage activation of beta 1 at given concentration
Sequence (Q9Y478 2-270 limits assumed): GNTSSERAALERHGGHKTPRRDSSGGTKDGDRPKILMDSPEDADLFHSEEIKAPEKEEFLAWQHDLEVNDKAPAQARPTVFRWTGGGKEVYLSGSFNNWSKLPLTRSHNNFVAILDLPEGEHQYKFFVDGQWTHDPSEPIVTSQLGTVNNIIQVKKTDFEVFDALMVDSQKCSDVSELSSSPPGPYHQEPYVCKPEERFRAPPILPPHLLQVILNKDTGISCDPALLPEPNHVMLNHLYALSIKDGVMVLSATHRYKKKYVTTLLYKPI
Sequence (Q13131 whole entry): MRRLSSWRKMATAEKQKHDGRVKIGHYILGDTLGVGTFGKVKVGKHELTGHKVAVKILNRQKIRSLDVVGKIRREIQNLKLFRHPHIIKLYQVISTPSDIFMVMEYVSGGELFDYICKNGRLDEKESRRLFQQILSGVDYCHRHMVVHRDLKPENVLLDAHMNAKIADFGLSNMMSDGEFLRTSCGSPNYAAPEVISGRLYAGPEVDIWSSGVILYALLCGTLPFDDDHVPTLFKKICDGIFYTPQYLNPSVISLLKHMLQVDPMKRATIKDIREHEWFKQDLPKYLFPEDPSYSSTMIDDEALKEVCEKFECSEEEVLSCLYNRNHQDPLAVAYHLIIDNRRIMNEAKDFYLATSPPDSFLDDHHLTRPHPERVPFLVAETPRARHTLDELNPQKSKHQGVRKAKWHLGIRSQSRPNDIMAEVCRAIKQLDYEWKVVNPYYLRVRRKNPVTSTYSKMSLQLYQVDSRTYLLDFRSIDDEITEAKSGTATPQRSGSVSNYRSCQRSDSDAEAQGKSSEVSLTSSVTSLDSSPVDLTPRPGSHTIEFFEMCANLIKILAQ
Sequence (P54619 whole entry partner): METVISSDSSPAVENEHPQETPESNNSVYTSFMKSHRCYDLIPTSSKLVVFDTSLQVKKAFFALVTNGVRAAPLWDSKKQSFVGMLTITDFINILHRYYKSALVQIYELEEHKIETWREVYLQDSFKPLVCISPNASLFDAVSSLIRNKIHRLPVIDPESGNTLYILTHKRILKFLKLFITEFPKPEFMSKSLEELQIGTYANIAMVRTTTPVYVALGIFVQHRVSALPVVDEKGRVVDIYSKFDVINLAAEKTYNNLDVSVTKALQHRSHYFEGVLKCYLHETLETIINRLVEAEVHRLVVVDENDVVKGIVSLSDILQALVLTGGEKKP
So basically every entry gets a class from its activation at 1 µM, ranges being small value (below 40%), mid value (40% to below 80%), large value (80% or more)

| compound | label_value |
| --- | --- |
| Cc1ccc(C2CC23C(=O)Nc2cc(Cl)c(-c4ccc(-c5ccc(-n6cccn6)cc5)cc4)nc23)cc1C(=O)O (stereo not drawn) | mid value |
| COc1ccc(C2CC23C(=O)Nc2cc(Cl)c(-c4ccc(-c5ccc(-n6cncn6)cc5)cc4)cc23)cc1CC(=O)O (stereo not drawn) | mid value |
| O=C(O)Cc1cccc(C2CC23C(=O)Nc2cc(F)c(-c4ccc(-c5ccc(-n6cncn6)cc5)cc4)cc23)c1 (stereo not drawn) | large value |
| Cc1ccc(C2CC23C(=O)Nc2c3cc(-c3ccc(-c4ccc(-n5cncn5)cc4)cc3)c(Cl)c2Cl)cc1C(=O)O (stereo not drawn) | small value |
| Cc1ccc(C2CC23C(=O)Nc2c3cc(-c3ccc(-c4ccc(-n5cccn5)cc4)cc3)c(Cl)c2Cl)cc1C(=O)O (stereo not drawn) | small value |
| Cc1ccc(C2CC23C(=O)Nc2cc(F)c(-c4ccc(-c5ccc6c(cnn6C)c5)cc4)cc23)cc1C(=O)O (stereo not drawn) | small value |
| Cc1ccc(C2CC23C(=O)Nc2c(F)cc(-c4ccc(-c5ccc(-n6cncn6)cc5)cc4)cc23)cc1C(=O)O (stereo not drawn) | small value |
| Cc1ccc(C2CC23C(=O)Nc2cc(Cl)c(-c4ccc(-c5ccncc5)cc4)cc23)cc1CC(=O)O (stereo not drawn) | mid value |
| Cc1ccc(C2CC23C(=O)N(C)c2cc(Cl)c(-c4ccc(-c5ccncc5)cc4)cc23)cc1C(=O)O (stereo not drawn) | large value |
| O=C(O)Cc1cccc(C2CC23C(=O)Nc2cc(F)c(-c4ccc(-c5ccc(-n6cccn6)cc5)cc4)cc23)c1 (stereo not drawn) | mid value |
| COc1ccc(C2CC23C(=O)Nc2cc(F)c(-c4ccc(-c5ccc(-n6cccn6)cc5)cc4)cc23)cc1CC(=O)O (stereo not drawn) | large value |
| COc1ccc(C2CC23C(=O)Nc2cc(F)c(-c4ccc(-c5ccc(-n6cncn6)cc5)cc4)cc23)cc1CC(=O)O (stereo not drawn) | large value |
| Cc1ccc(C2CC23C(=O)Nc2cc(Cl)c(-c4ccc(-c5ccc(S(C)(=O)=O)cc5)cc4)cc23)cc1C(=O)O (stereo not drawn) | large value |
| CCc1ccc(C2CC23C(=O)Nc2cc(Cl)c(-c4ccc(-c5ccc(-n6cncn6)cc5)cc4)nc23)cc1C(=O)O (stereo not drawn) | mid value |
| COc1ccc(C2CC23C(=O)Nc2cc(Cl)c(-c4ccc(-c5ccc(-n6cncn6)cc5)cc4)cc23)cc1C(=O)O (stereo not drawn) | mid value |
| COc1ccc(C2CC23C(=O)Nc2cc(F)c(-c4ccc(-c5ccc(-n6ccnn6)cc5)cc4)cc23)cc1CC(=O)O (stereo not drawn) | mid value |
| O=C(O)Cc1cccc(C2CC23C(=O)Nc2cc(F)c(-c4ccc(-c5ccc(-n6ccnn6)cc5)cc4)cc23)c1 (stereo not drawn) | large value |
| Cc1ccc(C2CC23C(=O)N(CC2CC2)c2cc(Cl)c(-c4ccc(-c5ccncc5)cc4)cc23)cc1C(=O)O (stereo not drawn) | large value |
| COc1ccc(C2CC23C(=O)Nc2cc(F)c(-c4ccc(-c5ccc(-n6cncn6)cc5)cc4)cc23)cc1C(=O)O (stereo not drawn) | mid value |
| Cn1cc(C2CC23C(=O)Nc2cc(Cl)c(-c4ccc(-c5ccc(-n6cncn6)cc5)cc4)cc23)cc1C(=O)O (stereo not drawn) | small value |
| CC(C)(C(=O)O)c1ccc(C2CC23C(=O)Nc2cc(Cl)c(-c4ccc(-c5ccccc5O)cc4)cc23)cc1 (stereo not drawn) | mid value |
| Cc1ccc(C2CC23C(=O)Nc2cc(Cl)c(-c4ccc(-c5ccc(-n6ccnc6C)cc5)cc4)cc23)cc1C(=O)O (stereo not drawn) | small value |
| COc1ccc(C2CC23C(=O)Nc2cc(F)c(-c4ccc(-c5ccc(-n6ccnn6)cc5)cc4)cc23)cc1C(=O)O (stereo not drawn) | small value |
| COc1ccc(C2CC23C(=O)Nc2cc(Cl)c(-c4ccc(-c5ccccc5O)cc4)cc23)cc1CC(=O)O (stereo not drawn) | mid value |
